- system tested: Estrogen receptor beta (Homo sapiens, UniProt Q92731, C334S/C369S/C481S)
- Sequence (Q92731 whole entry C334S/C369S/C481S, the tested form may be a part): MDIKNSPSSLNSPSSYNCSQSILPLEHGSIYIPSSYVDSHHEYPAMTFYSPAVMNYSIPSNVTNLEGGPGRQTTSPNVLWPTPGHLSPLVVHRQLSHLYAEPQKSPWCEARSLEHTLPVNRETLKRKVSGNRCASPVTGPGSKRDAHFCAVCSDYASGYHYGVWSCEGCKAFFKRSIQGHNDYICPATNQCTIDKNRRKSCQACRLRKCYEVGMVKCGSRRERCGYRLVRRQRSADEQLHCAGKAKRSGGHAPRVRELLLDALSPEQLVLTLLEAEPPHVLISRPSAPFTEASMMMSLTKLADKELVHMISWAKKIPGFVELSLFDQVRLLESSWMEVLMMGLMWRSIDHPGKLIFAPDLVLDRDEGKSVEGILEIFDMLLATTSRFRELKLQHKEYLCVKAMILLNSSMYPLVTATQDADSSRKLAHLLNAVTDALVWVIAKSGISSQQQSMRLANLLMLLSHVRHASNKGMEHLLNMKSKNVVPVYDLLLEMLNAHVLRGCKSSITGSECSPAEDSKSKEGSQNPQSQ
- assay info: Binding affinity to recombinant human ERbeta LBD (259 to 498 residues) C334S/C369S/C481S triple mutant expressed in Escherichia coli BL21(DE3) by surface plasmon resonance method
Residues, ends and D or L forms follow the SMILES beside them.
readout name: pKd
By convention, pKd is the negative base-10 log of a molar concentration.

For CC[C@H](C)[C@H](NC(=O)[C@H](CCCCN)NC(=O)[C@H](Cc1cnc[nH]1)NC(C)=O)C(=O)N[C@@H](CC(C)C)C(=O)N[C@@H](Cc1cnc[nH]1)C(=O)N[C@@H](CCCNC(=N)N)C(=O)N[C@@H](CC(C)C)C(=O)N[C@@H](CC(C)C)C(=O)N[C@@H](CCC(N)=O)C(=O)N[C@@H](CC(=O)O)C(=O)N[C@@H](CO)C(N)=O (Ac-HKILHRLLQDS-NH2) , what is its reported pKd?
5.30
